Consider the following compounds and their measured inhibition at 10 µM readings.
Target: STARD1 (Homo sapiens)
Construct: STARD1(66-284); made in house; host or cells: E. coli BL21(DE3)
Sequence (P49675 66-284): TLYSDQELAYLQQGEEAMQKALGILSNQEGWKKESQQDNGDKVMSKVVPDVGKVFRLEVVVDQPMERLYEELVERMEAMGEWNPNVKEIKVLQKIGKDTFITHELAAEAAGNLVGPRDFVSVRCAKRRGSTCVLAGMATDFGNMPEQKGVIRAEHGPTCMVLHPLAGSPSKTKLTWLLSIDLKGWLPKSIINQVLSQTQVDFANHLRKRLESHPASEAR
Assay: Fluorescence polarisation (FP) competition with NBD-cholesterol, STARD1
Format: binding
Conditions: single dose, Dose = 10 µM
The response must be a number in % with no trailing unit.

Worked cases, answers included:
COc1ccc2c(c1)[C@]1(O)CC[C@@H]3C[C@H](O)CC[C@]3(C)C1=N2 [Compound 14b] : 10
Cc1cc(C)c2c3c([nH]c2c1)[C@@]1(C)CC[C@@H](O)C[C@H]1CC3 [Compound 10j] : 17
C[C@]12CC[C@@H](O)C[C@H]1CCC(=O)c1cc(C(F)(F)F)ccc1NC2=O [Compound 11e] : 10
C[C@]12CC[C@@H]3C[C@H]1CC[C@@]21C(=Nc2ccc(Br)cc21)O3 (racemic) [Compound 15b] : 27
CC12CCC3CC1CCC21C(=Nc2c(Br)cc(C(F)(F)F)cc21)O3 (stereo not drawn) [Compound 15h] : 17
C[C@]12CC[C@@H](O)C[C@H]1CCc1nc3ccccc3nc12 [Compound 7a] : 23
Cc1c2c(nc3ccccc13)[C@@]1(C)CC[C@@H](O)C[C@H]1CC2 [Compound 2a] : 30
CC12CCC3CC1CCC21C(=Nc2ccc(NCc4ccccc4)cc21)O3 (stereo not drawn) [Compound 19b] : 35

### Prompt Find the recorded inhibition at 10 µM belonging to CC12CCC3CC1CCC21C(=Nc2ccc(N4CCOCC4)cc21)O3 (racemic) [Compound 19a] and report it.
### Response 20
